system: OVCAR-4 ovarian; assay: NCI-60 one-dose screen, 48 h (100 = growth as untreated, 0 = no growth, -100 = all killed); conditions: 10 µM unless noted
This is part of a sample that, as a whole, favours compounds with a hit. Of some 83,000 tested, about 20% had one in any assay. The source made the active and inactive calls. How the source made its calls: active means growth percent below 10; inactive means the rest.
growth for assorted compounds
Attribute measured: growth

- Record smiles: "COc1ccccc1/C=C/c1cccc(NC(=S)NCCCCN(C)C)c1"
  Value measured: "-79.7% (active)"
- Record smiles: "C/C(=N/O)c1ccc(NC(=O)CSc2nnc(-c3ccc(-c4nc5ccc(Cl)cc5[nH]4)cc3)o2)cc1"
  Value measured: "14.5% (inactive)"
- Record smiles: "O=C(CSc1nc2c(c(=O)[nH]1)CCCC2)Nc1ccccc1C(=O)O"
  Value measured: "125% (inactive)"
- Record smiles: "COc1cc(CNC(=O)C[C@H](C)CCC=C(C)C)ccc1OCc1cn(-c2ccccc2F)nn1"
  Value measured: "71.4% (inactive)"
- Record smiles: "CS(=O)(=O)c1ccc(-n2nc(C(=O)NCc3ccccc3)cc2-c2ccc(Cl)cc2)cc1"
  Value measured: "71% (inactive)"
